measurement target: T1, hMEX3B KH1/2 (T102A/R105A) (Homo sapiens, UniProt Q6ZN04 56-230, T102A;R105A)
T1 sequence: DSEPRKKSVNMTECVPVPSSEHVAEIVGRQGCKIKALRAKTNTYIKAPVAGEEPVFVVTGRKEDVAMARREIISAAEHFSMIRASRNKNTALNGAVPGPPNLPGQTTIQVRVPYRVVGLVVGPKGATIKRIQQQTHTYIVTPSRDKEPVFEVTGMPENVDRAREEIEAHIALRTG
run description: ITC; N 0.79; ITC at 298 K, protein injected into RNA, both dialyzed in the same buffer (composition not in the material; purification SEC buffer 2 M NaCl, 20 mM Tris pH 7.5); NMR at 298 K, 0.1 mM protein
recorded conditions: protein: recombinant; tags: 6xHis-SUMO cleaved (ULP1)
pKd: −log10 of the molar value.
endpoint: pKd

INSERT INTO results (binder, assay_value) VALUES
  ('CUGAGCUGUAAC (ssRNA) [12-nt RNA]', 5.68);
